Target: GABAA receptor β1 subunit (α1β1γ2SEM tri-heteromer) (Rattus norvegicus, UniProt P15431+P62813, P15431:DEL334-439/P15431:INS334GT/P62813:DEL340-408)
Construct: purified α1β1γ2SEM receptor-Fab complex (M3/M4 loop deletions in α1 and β1; full-length γ2S); with GABAA receptor α1 subunit (Gabra1, P62813) and γ2S subunit (Gabrg2, P18508); 8E3 Fab
Sequence (P15431 with tags, fused parts or gaps DEL334-439/INS334GT): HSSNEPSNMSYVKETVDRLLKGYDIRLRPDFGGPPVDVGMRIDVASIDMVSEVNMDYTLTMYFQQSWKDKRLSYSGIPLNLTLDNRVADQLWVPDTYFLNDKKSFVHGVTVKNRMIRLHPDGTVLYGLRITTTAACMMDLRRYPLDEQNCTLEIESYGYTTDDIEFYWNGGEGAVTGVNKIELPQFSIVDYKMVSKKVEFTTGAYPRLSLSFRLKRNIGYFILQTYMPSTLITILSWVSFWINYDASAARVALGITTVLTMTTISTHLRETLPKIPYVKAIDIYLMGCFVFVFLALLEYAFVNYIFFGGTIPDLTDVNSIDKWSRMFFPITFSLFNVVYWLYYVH
Sequence (P62813 with tags, fused parts or gaps DEL340-408): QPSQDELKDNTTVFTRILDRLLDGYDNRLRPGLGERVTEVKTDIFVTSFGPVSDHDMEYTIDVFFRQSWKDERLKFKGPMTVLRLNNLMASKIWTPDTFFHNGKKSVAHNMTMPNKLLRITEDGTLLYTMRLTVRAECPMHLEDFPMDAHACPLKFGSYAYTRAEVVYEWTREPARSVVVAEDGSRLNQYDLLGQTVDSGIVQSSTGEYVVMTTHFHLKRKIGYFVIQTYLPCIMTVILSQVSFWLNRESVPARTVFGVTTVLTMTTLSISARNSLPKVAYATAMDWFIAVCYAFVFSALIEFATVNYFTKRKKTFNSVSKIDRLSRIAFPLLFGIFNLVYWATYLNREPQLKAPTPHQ
Sequence (P18508 39-466 partner): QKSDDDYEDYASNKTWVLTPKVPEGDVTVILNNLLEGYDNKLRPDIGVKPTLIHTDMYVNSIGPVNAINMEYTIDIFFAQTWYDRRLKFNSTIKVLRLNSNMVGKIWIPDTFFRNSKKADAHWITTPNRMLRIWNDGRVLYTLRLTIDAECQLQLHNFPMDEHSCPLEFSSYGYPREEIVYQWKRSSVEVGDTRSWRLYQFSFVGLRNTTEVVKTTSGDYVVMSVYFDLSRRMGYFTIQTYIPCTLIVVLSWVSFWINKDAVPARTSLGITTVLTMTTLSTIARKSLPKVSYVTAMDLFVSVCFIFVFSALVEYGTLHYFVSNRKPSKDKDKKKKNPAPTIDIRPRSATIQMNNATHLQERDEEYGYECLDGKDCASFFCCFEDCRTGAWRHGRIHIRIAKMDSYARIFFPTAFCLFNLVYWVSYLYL
Assay: radioligand saturation binding (scintillation proximity assay)
ASSAY METRIC: pKd
# pKd: negative log10 of molar concentration; output just the value

Q) Recorded pKd for NCc1cc(=O)[nH]o1 [muscimol] , please?
A) 6.96
